Taken from patent US20220289680A1.

- experiment: Solubility measurements in various solvents (visual inspection of dissolution)
- Format: physicochemical
- condition_summary: tetrahydrofuran/water (95/5, v/v), organic solvent or mixture, thermodynamic from solid
property_name: solubility

Query :: Look at this compound and give its reported solubility. NCCOCCOCCNc1ccc2c3c(cccc13)C(=O)N(CCOCCOCCN1C(=O)c3cccc4c(NCCOCCOCCN)ccc(c34)C1=O)C2=O
Result :: < 1000 µg/mL

---

- experiment: Solubility measurements in various solvents (visual inspection of dissolution)
- Format: physicochemical
- condition_summary: dimethylsulfoxide (DMSO), organic solvent or mixture, thermodynamic from solid
property_name: solubility

Query :: Look at this molecule and give its reported solubility. NCCOCCOCCNc1ccc2c3c(cccc13)C(=O)N(CCOCCOCCN1C(=O)c3cccc4c(NCCOCCOCCN)ccc(c34)C1=O)C2=O
Result :: < 1000 µg/mL
